Sourced from PubChem BioAssay AID1845199

Tested on: 556581-035-R-J1 tumor spheroid viability, % test/control;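 further: spheroids exposed to compounds for 7 days before viability read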
Experiment: Anticancer human tumor 556581-035-R-J1 patient-derived ovarian carcinoma cell line growth inhibition; active means viability on the fitted dose curve at most 10% of control; inactive means the rest
Conditions: second compound 0.003 µM; first compound 0.0316 µM; spheroids with HUVEC and MSC
Protocol: Multicellular complex tumor spheroid response to DNA repair inhibitors in combination with DNA-damaging drugs This study explores the anticancer activities of DNA-damaging drugs and inhibitors of DNA damage repair, both as single agents and in combinations. […] Twenty-six patient-derived or established malignant cell lines were evaluated representing sarcoma, melanoma, small cell lung cancer (SCLC), non-small cell lung cancer (NSCLC), as well as bladder, ovarian and pancreatic cancers. […]
Outcomes: 1 for active, -1 for inactive

{"columns": ["molecule", "group_label"],
 "data": [
  ["COc1cc(C)[nH]c(=O)c1CN1CCc2c(Cl)cc(C(OC)C3COC3)c(Cl)c2C1=O (configuration not stated) + COc1cc2c(cc1O)CCNC21CSC2c3c(OC(C)=O)c(C)c4c(c3C(COC1=O)N1C(O)C3Cc5cc(C)c(OC)c(O)c5C(C21)N3C)OCO4", 1],
  ["[2H]c1nc(C)nc([2H])c1-c1cc(NC[C@@H](C)c2cccc3c(C(=O)NC)ccnc23)ncn1 + CC[C@@]1(O)C(=O)OCc2c1cc1n(c2=O)Cc2cc3c(CN(C)C)c(O)ccc3nc2-1", -1],
  ["COc1ccc([C@@H](O)c2cc(-c3ncnc4cc(N5CCOCC5)ccc34)c(F)cc2Cl)nn1 + COc1cc2c(cc1O)CCNC21CSC2c3c(OC(C)=O)c(C)c4c(c3C(COC1=O)N1C(O)C3Cc5cc(C)c(OC)c(O)c5C(C21)N3C)OCO4", 1],
  ["CC(C)n1c(=O)n(C)c2cnc3cc(F)c(-c4ccc(OCCCN5CCCCC5)nc4)cc3c21 + CC[C@@]1(O)C(=O)OCc2c1cc1n(c2=O)Cc2cc3c(CN(C)C)c(O)ccc3nc2-1", -1],
  ["COc1cc(C)[nH]c(=O)c1CN1CCc2c(Cl)cc(C(OC)C3COC3)c(Cl)c2C1=O (configuration not stated) + CC[C@@]1(O)C(=O)OCc2c1cc1n(c2=O)Cc2cc3c(CN(C)C)c(O)ccc3nc2-1", -1],
  ["COc1ccc([C@@H](O)c2cc(-c3ncnc4cc(N5CCOCC5)ccc34)c(F)cc2Cl)nn1 + CC[C@@]1(O)C(=O)OCc2c1cc1n(c2=O)Cc2cc3c(CN(C)C)c(O)ccc3nc2-1", -1],
  ["Cc1cc(C)c(CNC(=O)c2cc(-c3ccc(CN4CCOCC4)cc3)cc3c2cnn3C2CCCC2)c(=O)[nH]1 + COc1cc2c(cc1O)CCNC21CSC2c3c(OC(C)=O)c(C)c4c(c3C(COC1=O)N1C(O)C3Cc5cc(C)c(OC)c(O)c5C(C21)N3C)OCO4", 1],
  ["CC1COCCN1c1cc(-c2ccnn2C)c2ccnc(-c3ccn[nH]3)c2n1 (configuration not stated) + CC[C@@]1(O)C(=O)OCc2c1cc1n(c2=O)Cc2cc3c(CN(C)C)c(O)ccc3nc2-1", -1],
  ["[2H]c1nc(C)nc([2H])c1-c1cc(NC[C@@H](C)c2cccc3c(C(=O)NC)ccnc23)ncn1 + COc1cc2c(cc1O)CCNC21CSC2c3c(OC(C)=O)c(C)c4c(c3C(COC1=O)N1C(O)C3Cc5cc(C)c(OC)c(O)c5C(C21)N3C)OCO4", 1],
  ["CC(C)n1c(=O)n(C)c2cnc3cc(F)c(-c4ccc(OCCCN5CCCCC5)nc4)cc3c21 + COc1cc2c(cc1O)CCNC21CSC2c3c(OC(C)=O)c(C)c4c(c3C(COC1=O)N1C(O)C3Cc5cc(C)c(OC)c(O)c5C(C21)N3C)OCO4", 1],
  ["CC1COCCN1c1cc(-c2ccnn2C)c2ccnc(-c3ccn[nH]3)c2n1 (configuration not stated) + COc1cc2c(cc1O)CCNC21CSC2c3c(OC(C)=O)c(C)c4c(c3C(COC1=O)N1C(O)C3Cc5cc(C)c(OC)c(O)c5C(C21)N3C)OCO4", 1],
  ["Cc1cc(C)c(CNC(=O)c2cc(-c3ccc(CN4CCOCC4)cc3)cc3c2cnn3C2CCCC2)c(=O)[nH]1 + CC[C@@]1(O)C(=O)OCc2c1cc1n(c2=O)Cc2cc3c(CN(C)C)c(O)ccc3nc2-1", -1]
]}
